Measured values drawn from ChEMBL document CHEMBL1201862 for this set.

- Test system: OVCAR-3
- Test details: NCI tumour cell line growth inhibition, 48 h
Activity calls are given as the source filed them. No stated cut-off is given here; in the data, active = GI50 up to about 1.1 µM and inactive = higher.
Quantity name: GI50

Before answering, review these 8 worked examples.
1) CC(C)N(C(=O)C12C3C4C1C1C2C3C41C(N)=O)C(C)C (configuration not stated); > 100 µM (inactive)
2) O=C(/C=C/c1ccc(OCCSCCCCCCCCCCSCCOc2ccc(/C=C/C(=O)c3ccc(Cl)cc3)cc2)cc1)c1ccc(Cl)cc1; > 100 µM (inactive)
3) CN(C)N1C(=O)C(=O)N(c2cccc3ccccc23)C1=O; > 10 µM (inactive)
4) Nn1c(S)nnc1COc1cccc(OCc2nnc(S)n2N)c1; > 100 µM (inactive)
5) COc1ccc2c(c1)-c1oc3ccccc3c(=O)c1CO2; 31.3 µM (inactive)
6) Cc1ccccc1NC(=O)CSc1nnc(Cc2ccccc2)o1; > 100 µM (inactive)
7) COc1cc(CNc2ccc3nc4n(c(=O)c3c2)CCCCC4)cc(OC)c1OC; 39.8 µM (inactive)
8) CO/C(=N\N=Cc1ccccc1)c1ccncc1; > 100 µM (inactive)

Entry CC12ON(P(=O)(c3ccccc3)c3ccccc3)C(C)(c3ccccc31)c1ccccc12 , GI50 reported as > 100 µM (inactive)

Value of GI50 reported for the compound NS(=O)(=O)c1cc2c(cc1Cl)N=C(CCC(=O)O)NS2(=O)=O is > 100 µM (inactive)

# compound CC1(C)[C@H](C(=O)O)N2C(=O)[C@@H](NS(=O)(=O)c3ccc([N+](=O)[O-])cc3)[C@H]2S1(=O)=O ; its GI50 = > 100 µM (inactive)

Item: CCOC(=O)c1cn2c(n1)sc1cc(Cl)cc(Cl)c12 | GI50: > 100 µM (inactive)

Form: compound = O=C1OC(c2ccccc2)=N/C1=C\c1ccccc1 ; GI50 = 24 µM (inactive)

The recorded GI50 for entry CC(=O)OCC1OC(n2c3c(c(-c4ccc(Cl)cc4)c(C#N)c2=S)CCCC3)C(OC(C)=O)C(OC(C)=O)C1OC(C)=O (configuration not stated) equals 21.7 µM (inactive)

GI50 recorded for this compound, CN(CC(=O)O)c1ncc2c(n1)-c1ccccc1OC2c1ccccc1 (configuration not stated) , is > 100 µM (inactive)

Per the records, this compound ( CC(=O)c1[nH]c(Nc2ccc(C)cc2)c(C(=S)Nc2ccccc2)c1N ) has GI50 equal to 15.2 µM (inactive)

Reported GI50 ( CCCCCCCCCc1c(O)c(O)c(CCCCCCCCC)c(CCCCCCCCC)c1CCCCCCCCC ) = 37.9 µM (inactive)

* * *

- System: MDA-MB-435
- Test details: NCI tumour cell line growth inhibition, 48 h
Active and inactive are the calls of the source. Cut-off read from the data, not from the text of the source: active = GI50 up to about 1.1 µM and inactive = higher.
Parameter GI50: see the listing below.

1. C/C(=N\NC(=S)Nc1ccccc1)c1nc2cccnc2[nH]1; 3.7 µM (inactive)
2. O=[N+]([O-])c1ccc(C2=NOC(c3ccccc3F)N2C23CC4CC(CC(C4)C2)C3)cc1 (stereo not given); > 100 µM (inactive)
3. CC1CC2(OC2C)C(=O)OC2CCN(C)C/C=C(/COC(=O)C1(C)O)C2=O (stereo not given); > 100 µM (inactive)
4. Cc1n2nc(N)sc2n[n+]1Cc1ccccc1; > 100 µM (inactive)
5. COc1nc(C(Cl)(Cl)Cl)c(Cl)c(OC)c1Cl; 42.5 µM (inactive)
6. Oc1cc(O)c2c(c1)O[C@H](c1cc(O)c(O)c(O)c1)[C@H](O)C2 [EPIGALLOCATECHIN]; 6.9 µM (inactive)
7. CN(C)CC1CCC/C(=C\c2ccccc2)C1=O (stereo not given); 1.78 µM (inactive)
8. COc1ccc(-n2c(C)nc3ccc(NC4OC(COC(C)=O)C(OC(C)=O)C(OC(C)=O)C4OC(C)=O)cc3c2=O)cc1 (stereo not given); > 100 µM (inactive)
9. Clc1cccc(/C=c2\nc(-c3ccccc3)n3c2nc2ccccc23)c1; > 100 µM (inactive)
10. FC(F)(F)c1ccc(/N=N/N2CCCC2)cc1; > 100 µM (inactive)

Form field GI50, entry COc1cc(S(=O)(=O)Nc2ccc(-c3csc(N4C(=O)C(Cl)C4c4ccccc4O)n3)cc2)ccc1Cl (stereo not given) : 31.4 µM (inactive)

Per the record, CC12C3C4C1C1C2C3C41CO (stereo not given) has GI50 of > 100 µM (inactive)

So, COc1ccc(C2CC(c3c(O)ccc4ccccc34)=NN2c2ccc([N+](=O)[O-])cc2[N+](=O)[O-])cc1OC (stereo not given) ? Its GI50 was 24 µM (inactive)

For Cc1ccc(S(=O)(=O)N/N=C2/C3C(CC2(C)C)C2(C)CCCC3(C)C2O)cc1 (stereo not given) the compound record lists GI50 as > 10 µM (inactive)

GI50 for COc1ccc(/C=C2\NC(=S)N(/C=C3\C(=O)Oc4ccccc4C3=O)C2=O)cc1OC is > 100 µM (inactive)

* * *

- System: SW-620
- Test details: NCI tumour cell line growth inhibition, 48 h
The source made the active and inactive calls. Cut-off read from the data, not from the text of the source: active = GI50 up to about 1.1 µM and inactive = higher.
Your response should consist of one outcome taken from active, inactive

Use the examples below as a reference point.
1) NCCCC(N/C=C1/N=C(c2ccccc2)OC1=O)C(=O)O (configuration not stated); inactive
2) O=[N+]([O-])c1ccc(C2=NOC(c3ccccc3F)N2C23CC4CC(CC(C4)C2)C3)cc1 (configuration not stated); inactive
3) Cc1ccc(S(=O)(=O)OCCOCCOCCOCCOCCOS(=O)(=O)c2ccc(C)cc2)cc1; inactive

Given O=C1NC(c2cccc3ccccc23)Nc2ccccc21 (configuration not stated) , state the outcome it received in this test.
active

Recorded test outcome, item O=C(NC1CCCCC1)NC12CC3CC(CC(F)(C3)C1)C2
inactive

# fetch the recorded call for c1ccc(/N=C(\N2CCCCC2)N(CCN2CCCCC2)c2ccccc2)cc1 here
inactive

* * *

- Test system: XF498
- Test details: NCI tumour cell line growth inhibition, 48 h
Calls of active or inactive are those of the source. Cut-off read from the data, not from the text of the source: active = GI50 up to about 1.1 µM and inactive = higher.
Thanks in advance; please answer with one of these: y for active, n for inactive

1) COc1ccc(C(=O)c2c3cc(OC)c(OC)c(OC)c3cc[n+]2C)cc1; n
2) COc1nc(C(Cl)(Cl)Cl)c(Cl)c(OC)c1Cl; n
3) Cn1nc(-c2ccccc2)c(C(=O)/C=C/c2ccccc2)c(N2CCCC2)c1=O; n

What call does the record list for O=C(CCCN1CCC(C(O)c2ccc(F)cc2)CC1)c1ccc(F)cc1 (stereo not drawn) ?
n

Please share the test call associated with O=C1OC(=O)c2c1c(-c1ccccc1)cn2-c1ccc(Cl)cc1 .
n

Record lookup: outcome of this test for O=C1C=C2C(=CCOC2O)O1 (stereo not drawn) ?
y

I'd appreciate the recorded outcome for Cn1c(=O)c2nc3sc4c(n3c2n(C)c1=O)C(=O)c1ccccc1C4=O from this test.
n

What was the test verdict on O=C(O)C12C3CCC(C3)C1(C(=O)O)C1CCC2C1 (stereo not drawn) ?
n

What is the recorded call for this compound in the test? Cc1ccc2[nH]c3c4c5ccccc5nc-4c[nH]c3c2c1
n

Check the results log: what was the call for O=C1C=CC(=O)c2c1cc1ccccc1c2O ?
n

// outcome(item) with item = CCO[C@]12C[C@H](OC)[C@@]3(O)CC(C1[C@H]3OCc1ccccc1)C13C4C2[C@H](OC)C1[C@](COC)(CN4CC)[C@H](O)C[C@@H]3OC (stereo partly drawn)
n

So what was the verdict on COc1ccc2c(c1)[n+]([O-])c(C(C)=O)c(C)[n+]2[O-] in this test?
n

What classification did NCCCC(N/C=C1/N=C(c2ccccc2)OC1=O)C(=O)O (stereo not drawn) end up with in this test?
n

* * *

Listing: GI50 of selected compounds
- System: UO-31
- Test details: NCI tumour cell line growth inhibition, 48 h
Calls of active or inactive are those of the source. No stated cut-off is given here; in the data, active = GI50 up to about 1.1 µM and inactive = higher.

Examples with their reported GI50 follow.
1) COC(=O)CCC(C)[C@H]1CCC2C3C(C[C@H](OC(C)=O)[C@@]21C)[C@@]1(C)CCC2(C[C@H]1C[C@H]3OC(C)=O)OOC1(CCCC1)OO2 (stereo not given in full); 10.1 µM (inactive)
2) O=c1ccc2ccc(OP(=O)(O)O)cc2o1; > 100 µM (inactive)
3) N[C@]1(C(=O)O)C[C@@H]2C(Br)=NO[C@@H]2C1; > 100 µM (inactive)
4) O=C1c2ccccc2C(=O)c2[nH]c(=O)c(/C=N/Nc3ccc([N+](=O)[O-])cc3)nc21; 6.58 µM (inactive)
5) O=C(CCCN1CCC(C(O)c2ccc(F)cc2)CC1)c1ccc(F)cc1 (stereo not given); 23.1 µM (inactive)

Given item O=C1CCC(=O)c2c1c(O)c1ccncc1c2O , the value recorded as its GI50 is 15.5 µM (inactive)

# GI50 of COc1cc(=O)oc(/C=C/C=O)c1C = 20.8 µM (inactive)

Summary for this compound, Nc1nc(-c2ccc3ccccc3c2)cc(-c2cc(-c3ccc4ccccc4c3)nc(N)n2)n1 : GI50 is > 100 µM (inactive)

GI50 for CN(C(=O)C12C3C4C1C1C2C3C41C(N)=O)C(C)(C)C (stereo not given) is > 100 µM (inactive)

GI50 measured on Oc1c2ccccc2c2c3c(cccc13)N=N2 [SP-600125] = 10.5 µM (inactive)
